- System: RXF 631
- Experimental details: NCI tumour cell line growth inhibition, 48 h
Active and inactive are the calls of the source. Cut-off read from the data, not from the text of the source: active = GI50 up to about 1.1 µM and inactive = higher.
Recorded GI50, one value per entry.

// solved cases for GI50 follow
For the compound N#CC1=C(c2ccccc2)C(O)(c2ccccc2)NC1=O (stereo unspecified) , give its measured GI50 value. 99.8 µM (inactive)

For the compound CCCCCCc1cc(C(=O)Nc2cccc(C(F)(F)F)c2)nc(N)n1 , give its measured GI50 value. > 100 µM (inactive)

For the compound O=P(Nc1ccc(Cl)cc1)(Oc1ccccc1)N(CCCl)CCCl (stereo unspecified) , give its measured GI50 value. 63.7 µM (inactive)

For the compound CCOCc1cc(=O)c2cc3c(cc2o1)OC(C)(C)CC3 , give its measured GI50 value. > 100 µM (inactive)

For the compound COc1cc(C(=O)N2CCc3c([nH]c4c([N+](=O)[O-])c(OC)ccc34)C2C)cc(OC)c1OC (stereo unspecified) , give its measured GI50 value. 79.6 µM (inactive)

Now look at this entry.
For the compound CCNC(=O)COc1ccc(Br)cc1Br , give its measured GI50 value. 69.7 µM (inactive)

* * *

- System: HCC 2998
- Experimental details: NCI tumour cell line growth inhibition, 48 h
Activity calls are given as the source filed them. Cut-off read from the data, not from the text of the source: active = GI50 up to about 1.1 µM and inactive = higher.
Recorded GI50, one value per entry.

For the compound CC(=N\N=C\c1ccccn1)/C(C)=N/N=C(C)/C(C)=N/N=C(C)/C(C)=N/N=C/c1ccccn1 , give its measured GI50 value. > 100 µM (inactive)

For the compound NN=C(CC(O)(C(F)(F)Cl)C(F)(F)Cl)CC(O)(C(F)(F)Cl)C(F)(F)Cl , give its measured GI50 value. > 10 µM (inactive)

For the compound COC(=O)CN(CC1O[C@@H]2OC(C)(C)O[C@@H]2C1N=[N+]=[N-])C(=O)OCc1ccccc1 (stereo not given in full) , give its measured GI50 value. > 100 µM (inactive)

For the compound Oc1[nH]c(Nc2cccc(CC(F)(F)F)c2)nc2ncnc1-2 , give its measured GI50 value. > 100 µM (inactive)

Now look at this entry.
For the compound COc1c(OC(C)=O)cc2c(OC(C)=O)c1CC(C)CC(OC)C(O)C(C)/C=C(\C)C(OC(N)=O)C(OC)/C=C\C=C(/C)C(=O)N2 (stereo not given) , give its measured GI50 value. 36.5 µM (inactive)

* * *

- System: UACC-62
- Experimental details: NCI tumour cell line growth inhibition, 48 h
Activity calls are given as the source filed them. Rule as the data show it: active = GI50 up to about 1.1 µM and inactive = higher.
Recorded GI50, one value per entry.

For the compound CC(C)(C)c1cc(COc2c3sc(=S)sc3c(OCc3cc(C(C)(C)C)cc(C(C)(C)C)c3)c3sc(=S)sc23)cc(C(C)(C)C)c1 , give its measured GI50 value. > 100 µM (inactive)

For the compound C=CC[C@H](C)CCC(=O)N1[C@H]2CC3CC[C@@]2(CS1(=O)=O)C3(C)C , give its measured GI50 value. > 100 µM (inactive)

For the compound Cc1ccc(NC(=O)CC(=O)N2N=C(N(CCC#N)c3cccc(C)c3)CC2c2ccccc2)cc1 (stereo not given) , give its measured GI50 value. > 100 µM (inactive)

For the compound CC(C)C(Sc1nc(-c2ccccc2)c(-c2ccccc2)[nH]1)C(=O)N/N=C/c1ccc([N+](=O)[O-])cc1 (stereo not given) , give its measured GI50 value. 15.6 µM (inactive)

For the compound Nc1cc(F)ccc1CC(=O)O , give its measured GI50 value. > 100 µM (inactive)

Now look at this entry.
For the compound Cc1ccc(S(=O)(=O)NC(=O)NC(CC(N)=O)C(=O)O)cc1 (stereo not given) , give its measured GI50 value. > 100 µM (inactive)

* * *

- Test system: HCC 2998
- Experimental details: NCI tumour cell line growth inhibition, 48 h
Calls of active or inactive are those of the source. Rule as the data show it: active = GI50 up to about 1.1 µM and inactive = higher.
Give your call using only these classes: yes (1) (active), no (0) (inactive)

Could you check what this test reported for C=C1C2CC3CCC2C(OC(=O)c2ccccc2C(=O)O)C13 (stereo not drawn) ? no (0)

Could you check what this test reported for Nc1ccc2c(c1)C(=O)c1c(F)cccc1-2 ? no (0)

Could you check what this test reported for Cc1cc(C(=O)CBr)c(CN2C(=O)c3ccccc3C2=O)c(=O)n1C ? no (0)

* * *

- System: SW-620
- Experimental details: NCI tumour cell line growth inhibition, 48 h
Activity calls are given as the source filed them. Rule as the data show it: active = GI50 up to about 1.1 µM and inactive = higher.
Recorded GI50, one value per entry.

// solved cases for GI50 follow
For the compound CC(=N\N=C\c1ccccn1)/C(C)=N/N=C(C)/C(C)=N/N=C/c1ccccn1 , give its measured GI50 value. > 100 µM (inactive)

For the compound c1cnc2c(c1)-n1cccc1C1(CCSC1)NN2 (stereo not drawn) , give its measured GI50 value. > 100 µM (inactive)

For the compound O=C1C(C(O)(C(F)(F)Cl)C(F)(F)Cl)CCC1C(O)(C(F)(F)Cl)C(F)(F)Cl (stereo not drawn) , give its measured GI50 value. 4.15 µM (inactive)

Others:
For the compound Cc1ccc(NC(=O)CC(=O)N2N=C(N(CCC#N)c3cccc(C)c3)CC2c2ccccc2)cc1 (stereo not drawn) , give its measured GI50 value. > 100 µM (inactive)

For the compound COCN(C)c1nc(N(C)C)nc(N(C)C)n1 , give its measured GI50 value. > 100 µM (inactive)

For the compound CC(C)=CC(=O)O[C@H]1C(=O)O[C@@H]2C[C@H]3[C@H](C)C(=O)C(O[C@@H]4O[C@H](CO)[C@@H](O)[C@H](O)[C@H]4O)=C[C@]3(C)[C@H]3[C@@H](O)[C@H](O)[C@]4(C(=O)O)OC[C@]32[C@@H]14 [BRUCEOSIDE D] , give its measured GI50 value. 79.4 µM (inactive)

For the compound O=C(O)CN(CC(=O)O)Cc1cc(C#Cc2ccc(C#Cc3ccccc3)cc2)cc(CN(CC(=O)O)CC(=O)O)n1 , give its measured GI50 value. 15.7 µM (inactive)

For the compound CC(C)=C1C(=O)C[C@]2(C)C[C@H]3O[C@]3(C)CC[C@@H]3O[C@@]3(C)CC[C@@H]12 , give its measured GI50 value. > 50 µM (inactive)

* * *

- Tested on: IGROV-1
- Experimental details: NCI tumour cell line growth inhibition, 48 h
The source made the active and inactive calls. No stated cut-off is given here; in the data, active = GI50 up to about 1.1 µM and inactive = higher.
Give your call using only these classes: 1 = active, -1 = inactive

Consider the worked cases shown below.
Could you check what this test reported for Nc1cc(F)ccc1CC(=O)O ? -1

Could you check what this test reported for O=C1CSC(/C=C/c2ccccc2)N1c1ccc(-n2c(-c3ccccc3)nc3ccccc3c2=O)cc1 (stereo not drawn) ? -1

Could you check what this test reported for CCOC(=O)N[C@@H]1C2CC(=O)C(O2)[C@@H]1OC (stereo partly drawn) ? -1

Could you check what this test reported for CC(C)(C)c1ccc2c(c1)OP1(Oc3cccc4cccnc34)(O2)Oc2ccc(C(C)(C)C)cc2O1 ? -1

Now turn to the next molecule.
Could you check what this test reported for CC(=O)Oc1ccc2c3c1O[C@H]1[C@H](O)CC[C@@]4(O)[C@@H](C2)N(C)CC[C@]314 ? -1

* * *

- System: EKVX
- Experimental details: NCI tumour cell line growth inhibition, 48 h
Active and inactive are the calls of the source. Cut-off read from the data, not from the text of the source: active = GI50 up to about 1.1 µM and inactive = higher.
Experimental endpoint: GI50

State the measured GI50 (EKVX) of N#CC(C#N)=CNCCN1CCN(C=C(C#N)C#N)CC1 > 100 µM (inactive)

State the measured GI50 (EKVX) of CN(C(=O)[C@H](NC(=O)OCc1ccccc1)c1ccccc1)C1CCCCC1N1CCCC1 (stereo partly specified) > 100 µM (inactive)

State the measured GI50 (EKVX) of NN=C(CC(O)(C(F)(F)Cl)C(F)(F)Cl)CC(O)(C(F)(F)Cl)C(F)(F)Cl > 10 µM (inactive)

State the measured GI50 (EKVX) of OCC1CC2C=CCC(C2)C1 (stereo unspecified) > 100 µM (inactive)

State the measured GI50 (EKVX) of Cc1[nH]c(-c2ccccc2)c(O)c1C(=O)OC1CC(C)CCC1C(C)C (stereo unspecified) 11.7 µM (inactive)

State the measured GI50 (EKVX) of O=C(O)CN(CC(=O)O)Cc1cc(C#Cc2ccc(C#Cc3ccccc3)cc2)cc(CN(CC(=O)O)CC(=O)O)n1 20.3 µM (inactive)

State the measured GI50 (EKVX) of CCCCCCCCSC(=O)NCCCC 27.8 µM (inactive)

* * *

- Test system: HOP-92
- Experimental details: NCI tumour cell line growth inhibition, 48 h
Active and inactive are the calls of the source. No stated cut-off is given here; in the data, active = GI50 up to about 1.1 µM and inactive = higher.
Give your call using only these classes: t (active), f (inactive)

Could you check what this test reported for CN(C)CCNC(=O)c1ccc(NCCCN(C)CCCNc2ccc3c(=O)n(CCN(C)C)c(=O)n4c5ccccc5c(=O)c2c34)c2c(O)c3ccccc3nc12 ? t

Could you check what this test reported for C[C@]12CCC[C@H](Cl)C1(O)C[C@H](C(=O)O)CC2 (stereo partly drawn) ? f

Now turn to the next compound.
Could you check what this test reported for CC(=O)O[C@H]1C(=O)[C@@]2(C)[C@H]([C@H](OC(=O)c3ccccc3)[C@]3(O)C[C@H](OC(=O)[C@H](O)[C@@H](NC(=O)c4ccccc4)c4cccc(N(C)C)c4)C(C)=C1C3(C)C)[C@]1(OC(C)=O)CO[C@@H]1C[C@@H]2O ? t
